assay: Half life in mouse at 1 mg/kg, iv and 2 mg/kg, po; format: ADME, organism-based; details: in vivo
testReadout: half-life
Enter the number, and then the unit.

# example entries with known answers
compound=O=C(CCc1cnn(-c2ccc(O)cc2)c1)Nc1ccccc1C(=O)O measurement="3.5 h"
compound="Cc1c(CC(C)C(=O)NC2=C(C(=O)O)CCCC2)cnn1-c1ccc(O)cc1 (stereo not drawn)" measurement="4.8 h"

# ---- query compound ----
Please give the measured half-life for this compound: O=C(CCc1cnn(-c2ccc(O)cn2)c1)NC1=C(C(=O)O)CCCC1 3.3 h

* * *

assay: Cmax in mouse at 1 mg/kg, iv and 2 mg/kg, po; format: ADME, organism-based; settings: in vivo
Listed here: items and their measured Cmax.
Numeric answer only, unit nM assumed.

compound=O=C(CCc1cnn(-c2ccc(O)cn2)c1)NC1=C(C(=O)O)CCCC1 testreadout=Cmax endpointunit=nM measurement=11500
compound=O=C(CCc1ccc(-c2ccc(O)cc2Cl)cc1)Nc1ccccc1C(=O)O testreadout=Cmax endpointunit=nM measurement=930

GET /values?readout=Cmax&item= Cc1c(CC(C)C(=O)NC2=C(C(=O)O)CCCC2)cnn1-c1ccc(O)cc1 (centres undefined) 4780

Requested field: Cmax. Item: O=C(CCc1cnn(-c2ccc(O)cc2)c1)Nc1ccccc1C(=O)O 480
